- target: T1, MET928 (cMET protein derived from construct 25-928) (human, UniProt P08581 25-928)
- T1 construct: MET ectodomain, residues 1-24 are the leader; produced in Lec 8 cells; background text says the ectodomain is furin-cleaved into alpha (25-307) and beta chains; biotinylated form used in selections; also called MET928 extracellular domain; Met extracellular domain
- T1 sequence (P08581 25-928): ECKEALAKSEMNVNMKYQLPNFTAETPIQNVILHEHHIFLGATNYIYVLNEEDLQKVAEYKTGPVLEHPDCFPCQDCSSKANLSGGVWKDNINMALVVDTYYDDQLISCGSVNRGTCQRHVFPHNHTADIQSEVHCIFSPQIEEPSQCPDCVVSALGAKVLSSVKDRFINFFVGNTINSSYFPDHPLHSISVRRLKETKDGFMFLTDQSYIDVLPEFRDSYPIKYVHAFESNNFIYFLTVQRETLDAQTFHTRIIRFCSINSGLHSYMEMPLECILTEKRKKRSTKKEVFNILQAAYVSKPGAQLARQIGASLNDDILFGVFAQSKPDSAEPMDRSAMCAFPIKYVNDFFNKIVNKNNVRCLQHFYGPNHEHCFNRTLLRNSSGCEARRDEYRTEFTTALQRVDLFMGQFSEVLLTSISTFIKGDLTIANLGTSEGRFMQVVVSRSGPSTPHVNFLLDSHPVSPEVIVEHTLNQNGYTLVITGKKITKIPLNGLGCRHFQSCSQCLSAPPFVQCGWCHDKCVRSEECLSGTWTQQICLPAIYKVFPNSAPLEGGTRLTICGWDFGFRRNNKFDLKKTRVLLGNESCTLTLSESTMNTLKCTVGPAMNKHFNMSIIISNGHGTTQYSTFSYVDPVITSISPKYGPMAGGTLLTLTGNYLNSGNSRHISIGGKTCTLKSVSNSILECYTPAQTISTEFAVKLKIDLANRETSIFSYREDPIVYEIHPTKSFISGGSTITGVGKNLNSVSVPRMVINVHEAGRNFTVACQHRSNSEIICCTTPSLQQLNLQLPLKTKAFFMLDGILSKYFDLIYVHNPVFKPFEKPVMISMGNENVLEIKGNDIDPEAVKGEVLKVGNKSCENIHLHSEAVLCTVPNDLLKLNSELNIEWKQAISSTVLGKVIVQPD
- testSummary: Biacore SPR, MET-928 on chip, Fab format
measuredParameter: Kd (nM)
Lab book: enter the figure in nM, no units written.

# binder, Kd / nM
rows = [
    ("7A2 Fab (His- and FLAG-tagged, hinged format) (Fab, V domains shown, Fab from pBIOCAM7-3F in HEK293 cells, hinged format (Leu-Glu after VH), hexahistidine and tri-FLAG tags at the C-terminus of the heavy chain) VH: QMQLVQSGAEVKKPGAPVKVSCKVSGYTFTDYYMHWVQQAPGKGLEWMGLVDPEDGETIYAEKFQGRVTITADTSTDTAYMELSSLRSEDTAVYYCATDATTPYYGMDVWGQGTLVTVSS VL: DIQMTQSPSSLSASVGDRVTITCQASQDISNYLNWYQQKPGRAPKVLIYDASNLETGVPSRFSGSGSGTEFTLTISNLRPDDFATYYCQQGDSFPLTFGGGTKVEIK", 77.3),
]

Pending binder:
The reported value for 111_D06 Fab (His/tri-FLAG tagged, hinged) (Fab, V domains shown, Fab from pBIOCAM7-3F, hinged, hexahistidine and tri-FLAG tags on the heavy chain) VH: QMQLVQSGAEVKKPGAPVKVSCKVSGYTFTDYYMHWVQQAPGKGLEWMGLVDPEDGETIYAEKFQGRVTITADTSTDTAYMELSSLRSEDTAVYYCATDATTPYWGMWQWGQGTLVTVSS VL: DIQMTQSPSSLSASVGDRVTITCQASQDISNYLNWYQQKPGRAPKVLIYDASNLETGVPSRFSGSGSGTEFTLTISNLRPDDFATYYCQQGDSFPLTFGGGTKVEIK in terms of Kd is 2.29

Numbers sourced from patent US20150147274A1.
